Target: Papain (Carica papaya) (UniProt P00784)
Sequence (whole entry): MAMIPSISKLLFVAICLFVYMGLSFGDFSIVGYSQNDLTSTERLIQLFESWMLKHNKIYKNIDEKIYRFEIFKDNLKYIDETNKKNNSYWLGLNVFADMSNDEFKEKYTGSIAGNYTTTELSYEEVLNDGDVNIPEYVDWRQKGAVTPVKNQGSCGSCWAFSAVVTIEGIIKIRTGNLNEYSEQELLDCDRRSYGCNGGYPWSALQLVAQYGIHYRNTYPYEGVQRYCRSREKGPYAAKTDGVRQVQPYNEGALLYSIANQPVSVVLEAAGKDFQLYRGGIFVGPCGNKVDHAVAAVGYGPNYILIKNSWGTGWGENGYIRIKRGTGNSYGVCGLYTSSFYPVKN
Experiment: Irreversible inhibition of Carica papaya papain assessed as ratio of Kinact to Ki
Measured Ratio accompanies every entry in the list below.
Your reply should be a number followed by the unit it is expressed in.

Completed entries (count: 2):
Tell me measured Ratio for COC(=O)/C=C/CNC(=O)[C@@H](CNC(C)=O)Cc1ccccc1 please.
6.6 M⁻¹ s⁻¹

Input COC(=O)/C=C/CNC(=O)C1CCN(C(=O)CC(C)C)CC1 , output reported Ratio.
0.5 M⁻¹ s⁻¹

Further cases:
Specify Ratio for COC(=O)/C=C/CNC(=O)[C@H](CNC(C)=O)Cc1ccccc1 and stop.
0.4 M⁻¹ s⁻¹

Respond only with Ratio recorded for COC(=O)/C=C/CNC(=O)c1cc(-c2ccc(C)cc2)no1
1.2 M⁻¹ s⁻¹

* * *

experiment: Half life in rat plasma; format: ADME, cell-free
observation-type: half-life

Give half-life for the following compound: CCOC(=O)/C=C/C(C[C@@H]1CCNC1=O)NC(=O)[C@@H](CC(=O)[C@@H](NC(=O)c1cc(C)on1)C(C)C)Cc1ccc(F)cc1 (stereo partly specified)
< 2 min

* * *

experiment: Cysteamine reactivity of the compound in TRIS-HCL assessed as second order rate constant at 40 uM and pH 7.4
Mark T only when K stays strictly below 0.2 M⁻¹ s⁻¹. Values equal to the cut-off are F.

Worked set:
Lab note: confirm whether the reported K for this compound is below 0.2 M⁻¹ s⁻¹, equality not counting. compound: COc1ccc(C(=O)C(c2ccccc2)C(SCCN)c2ccc(OC)c(OC)c2)c(OC)c1 (stereo not drawn)
T

K under 0.2 M⁻¹ s⁻¹? Item: COc1cc(/C=C/C(=O)CC(=O)/C=C/c2ccc(O)c(OC)c2)ccc1O
T

Consider COc1ccc(C(=O)C(Cl)C(SCCN)c2ccc(OC)c(OC)c2)c(OC)c1 (stereo not drawn) . Does its K lie strictly below 0.2 M⁻¹ s⁻¹?
F

Bench note: check whether COc1ccc(C(=O)CC(SCCN)c2ccc(OC)c(OC)c2)c(OC)c1 (stereo not drawn) shows K below 0.2 M⁻¹ s⁻¹
T

Further cases:
Hello, is K of the following compound strictly smaller than 0.2 M⁻¹ s⁻¹? COc1ccc(C(C(=O)c2ccc(OC)cc2OC)C(SCCN)c2ccc(OC)c(OC)c2)cc1 (stereo not drawn)
T

Could you please tell me whether K recorded for COc1ccc(C(=O)C(I)C(SCCN)c2ccc(OC)c(OC)c2)c(OC)c1 (stereo not drawn) is less than 0.2 M⁻¹ s⁻¹?
F

* * *

assay: Half life in human plasma; type: ADME, cell-free
observation-type: half-life

Look up half-life of CCOC(=O)/C=C/C(C[C@@H]1CCNC1=O)NC(=O)[C@@H](CC(=O)[C@@H](NC(=O)c1cc(C)on1)C(C)C)Cc1ccc(F)cc1 (stereo partly specified) and report it.
> 1 h
